- assay-system: CA IX (Homo sapiens, UniProt Q16790)
- Construct: His-tag; made in house
- protocol-notes: Carbonic anhydrase inhibition assay (p-nitrophenyl acetate hydrolysis, colorimetric, 348 nm)
- Assay type: biochemical
- setup-conditions: mean of three independent experiments ± SEM; pH 7.6; read-out: CAIX Ki (μM ± SEM)
metric: Ki (µM)

record-smiles	assay-system	numeric-value
Cc1ccc(C(=O)NNS(=O)(=O)c2ccc(Br)cc2)c(O)c1	CA IX (Homo sapiens, UniProt Q16790)	0.33
Cc1ccc(C(=O)NNS(=O)(=O)c2ccc([N+](=O)[O-])cc2)c(O)c1	CA IX (Homo sapiens, UniProt Q16790)	0.54
COc1ccc(S(=O)(=O)NNC(=O)c2ccc(C)cc2O)cc1	CA IX (Homo sapiens, UniProt Q16790)	0.91
COc1cc(C)ccc1C(=O)NNS(=O)(=O)c1ccc(Br)cc1	CA IX (Homo sapiens, UniProt Q16790)	0.56
COc1cccc(CC(=O)NNS(=O)(=O)c2ccc3ccccc3c2)c1	CA IX (Homo sapiens, UniProt Q16790)	0.6
